# method: Absolute bioavailability, beagle tests of the compound [formula (II)] and its prodrugs
# Format: in vivo
# condition: beagle, dog, 9.4 μmol/beagle; iv, dosage equimolar to the prodrug; compound [formula (II)] in blood

compound | half-life [h]
Cc1nc2n(c(=O)c1CCN1CCC(c3noc4cc(F)ccc34)CC1)CCCC2O (stereo not shown) [9-hydroxy risperidone] | 2.51

* * *

# method: Absolute bioavailability, beagle tests of the compound [formula (II)] and its prodrugs
# Assay type: in vivo
# condition: beagle, dog, 9.4 μmol/beagle; iv, dosage equimolar to the prodrug; compound [formula (II)] in blood
property_measured: Cmax (ng/mL)

compound | readout_units | reading
Cc1nc2n(c(=O)c1CCN1CCC(c3noc4cc(F)ccc34)CC1)CCCC2O (stereo not shown) [9-hydroxy risperidone] | ng/mL | 360
